Source listed as the supplement of paper PMC10307832.

Test system: NCI-H1993
protocolText: relative viability (nuclei count vs DMSO), 5 days (fraction); higher = more cells survive
statedConditions: first compound 0.04 µM
The entries below are paired with their reported relative viability.
Just the number, please, no unit attached.

Example results:
compound | relative viability
C[C@@H]1CN(CC(=O)Nc2ccc3c(c2)Cc2cccc(-c4cc(=O)cc(N5CCOCC5)o4)c2S3)C[C@H](C)O1 + C[C@@H](Oc1cc(-c2cnn(C3CCNCC3)c2)cnc1N)c1c(Cl)ccc(F)c1Cl [Crizotinib] (partner 1 µM) | 0.876
Clc1ccc(Nc2nnc(Cc3ccncc3)c3ccccc23)cc1 [Vatalanib] + Cc1nc(Nc2ncc(C(=O)Nc3c(C)cccc3Cl)s2)cc(N2CCN(CCO)CC2)n1 [Dasatinib] (partner 0.075 µM) | 0.727
C[C@@H]1CN(CC(=O)Nc2ccc3c(c2)Cc2cccc(-c4cc(=O)cc(N5CCOCC5)o4)c2S3)C[C@H](C)O1 + CC(=O)Nc1cccc(-n2c(=O)n(C3CC3)c(=O)c3c(Nc4ccc(I)cc4F)n(C)c(=O)c(C)c32)c1 [Trametinib] (partner 0.02 µM) | 0.521
C[C@@H]1CN(CC(=O)Nc2ccc3c(c2)Cc2cccc(-c4cc(=O)cc(N5CCOCC5)o4)c2S3)C[C@H](C)O1 + NC(=O)Nc1cc(-c2cccc(F)c2)sc1C(=O)N[C@H]1CCCNC1 [AZD7762] (partner 0.2 µM) | 0.752
C[C@@H]1CN(CC(=O)Nc2ccc3c(c2)Cc2cccc(-c4cc(=O)cc(N5CCOCC5)o4)c2S3)C[C@H](C)O1 + CS(=O)(=O)CCNCc1ccc(-c2ccc3ncnc(Nc4ccc(OCc5cccc(F)c5)c(Cl)c4)c3c2)o1 [Lapatinib] (partner 2 µM) | 0.862
COc1cc(N2CCC(C(N)=O)CC2)ccc1Nc1nc(N)c(Cl)c(Nc2ccccc2S(=O)(=O)C(C)C)n1 [HG-5-88-01] + CC1(C)CCC(c2ccc(Cl)cc2)=C(CN2CCN(c3ccc(C(=O)NS(=O)(=O)c4ccc(N[C@H](CCN5CCOCC5)CSc5ccccc5)c(S(=O)(=O)C(F)(F)F)c4)cc3)CC2)C1 [Navitoclax] (partner 0.5 µM) | 1.06

// next item, relative viability requested
Task: I am curious: what relative viability value has been reported for Clc1ccc(Nc2nnc(Cc3ccncc3)c3ccccc23)cc1 [Vatalanib] + Nc1nc2[nH]cc(CCc3ccc(C(=O)N[C@@H](CCC(=O)O)C(=O)O)cc3)c2c(=O)[nH]1 [Pemetrexed] (partner 0.2 µM) ?
Output: 0.581
